Reference source: patent US20040048790A1

Provide the reported IC50 of each item.
# measurementTarget: A*6802 (Homo sapiens, UniProt P04439, A269V/D140Y/D185E/E176V/E277Q/E87N/F33Y/G231S/I121R/I166T/I218V/L180W/L300P/L318F/N151K/P208A/P217A/Q86R/R138H/R169H/S129P/T345S/V36M)
# runDescription: biochemical
Non-standard residues stand in square brackets, D forms with d. Residues, ends and D or L forms follow the SMILES beside them. Abu = CC[C@H](N)C(=O)O

Sample CC[C@H](NC(=O)[C@@H](NC(=O)[C@H](CCCCN)NC(=O)[C@H](C)NC(=O)[C@H](CC(C)C)NC(=O)[C@H](CCC(N)=O)NC(=O)[C@@H](N)CC)[C@@H](C)O)C(=O)N1CCC[C@H]1C(=O)N[C@H](C(=O)O)C(C)C [p53.135B1B7] (H-[Abu]QLAKT[Abu]PV-OH) ; IC50 observed: > 10 µM

Sample CC(C)C[C@H](NC(=O)[C@@H](N)CCCCN)C(=O)N[C@@H](Cc1ccc(O)cc1)C(=O)N[C@@H](CCC(N)=O)C(=O)NCC(=O)N[C@@H](CO)C(=O)N[C@@H](Cc1ccc(O)cc1)C(=O)NCC(=O)N[C@@H](Cc1ccccc1)C(=O)N[C@@H](CCCNC(=N)N)C(=O)N[C@H](C(=O)O)C(C)C [p53.101L2V11] ; IC50 observed: > 10 µM

Sample CC[C@H](NC(=O)[C@@H](NC(=O)[C@H](CCCCN)NC(=O)[C@H](C)NC(=O)[C@H](CC(C)C)NC(=O)[C@H](CC(C)C)NC(=O)[C@@H](N)CC)[C@@H](C)O)C(=O)N1CCC[C@H]1C(=O)N[C@H](C(=O)O)C(C)C [p53.135B1L2B7] (H-[Abu]LLAKT[Abu]PV-OH) ; IC50 observed: > 10 µM

Sample CC(C)C[C@H](NC(=O)[C@@H]1CCCN1C(=O)[C@H](CO)NC(=O)[C@H](CC(C)C)NC(=O)[C@@H](NC(=O)[C@H](CC(N)=O)NC(=O)[C@H](CC(N)=O)NC(=O)[C@H](CCC(=O)O)NC(=O)[C@@H]1CCCN1C(=O)[C@H](CC(C)C)NC(=O)[C@@H](N)CC(C)C)C(C)C)C(=O)O [p53.25] ; IC50 observed: 1.7 µM

Sample CSCC[C@H](NC(=O)[C@H](Cc1c[nH]cn1)NC(=O)[C@H](CCC(N)=O)NC(=O)[C@H](CO)NC(=O)[C@H](CC(C)C)NC(=O)[C@@H](N)CCCCN)C(=O)N[C@H](C(=O)N[C@@H](CCC(=O)O)C(=O)N[C@H](C(=O)O)C(C)C)[C@@H](C)O [p53.164L2] ; IC50 observed: > 10 µM

----------
# measurementTarget: B*3501 (Homo sapiens, UniProt P01889, A329T/A93T/A95T/C349S/D201E/D98Y/E176V/E187L/E204Q/E69T/I218V/K202T/L119I/Q94N/R155S/R180L/S121R/S35A/S48A/T118I/V127L/V306I/V36M/Y140S/Y91F)
# runDescription: biochemical
measuredAttribute: pIC50
Please report pIC50 as the negative decimal logarithm of the molar concentration, giving only the number.

Sample CC[C@H](C)[C@H](NC(=O)[C@H](CO)NC(=O)[C@@H]1CCCN1C(=O)[C@H](C)NC(=O)[C@@H]1CCCN1C(=O)[C@H](C)NC(=O)[C@@H]1CCCN1C(=O)[C@@H](N)Cc1ccccc1)C(=O)O [p53.84.F118] ; pIC50 observed: 6.49

Sample CC[C@H](C)[C@H](NC(=O)[C@H](C)NC(=O)[C@H](CCC(N)=O)NC(=O)[C@H](CO)NC(=O)[C@@H]1CCCN1C(=O)[C@H](CC(C)C)NC(=O)[C@@H]1CCCN1C(=O)[C@@H](N)Cc1ccccc1)C(=O)O [p53.33.F1] ; pIC50 observed: 6.14

Sample CC(C)C[C@H](NC(=O)[C@@H]1CCCN1C(=O)[C@H](Cc1c[nH]c2ccccc12)NC(=O)[C@H](CO)NC(=O)[C@@H]1CCCN1C(=O)[C@@H](N)Cc1ccccc1)C(=O)N[C@@H](CO)C(=O)N[C@@H](CO)C(=O)N[C@@H](CO)C(=O)N[C@H](C(=O)O)C(C)C [p53.88.F1] ; pIC50 observed: 7.14

Sample CC[C@H](C)[C@H](NC(=O)[C@@H](NC(=O)[C@@H](NC(=O)[C@@H](NC(=O)[C@@H](NC(=O)[C@H](CC(C)C)NC(=O)[C@@H](NC(=O)[C@@H]1CCCN1C(=O)[C@@H](N)Cc1ccccc1)[C@@H](C)CC)[C@@H](C)O)[C@@H](C)CC)[C@@H](C)CC)[C@@H](C)O)C(=O)O [p53.249.F119] ; pIC50 observed: 7.44

----------
# measurementTarget: DRB1*0301 (DR3) (Homo sapiens, UniProt P01903+P01911, A100K/A102G/A103R/A169T/F55Y/I96L/K41T/L162R/M171V/P40S/Q125H/Q178H/Q39Y/R42S/S66N/T106N/T262R/W38E/Y61H)
# Sequence (P01903 26-254 limits assumed, other chains not shown): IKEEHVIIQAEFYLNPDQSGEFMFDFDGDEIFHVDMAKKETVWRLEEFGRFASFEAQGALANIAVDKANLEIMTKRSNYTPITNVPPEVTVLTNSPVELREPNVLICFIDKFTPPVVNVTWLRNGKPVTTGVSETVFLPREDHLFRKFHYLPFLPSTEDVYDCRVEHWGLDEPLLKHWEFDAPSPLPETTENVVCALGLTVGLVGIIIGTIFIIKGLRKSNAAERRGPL
Provide the reported IC50 of each item.

Sample `C[C@H](NC(=O)[C@H](CCC(=O)O)NC(=O)[C@H](CC(=O)O)NC(=O)[C@@H]1CCCN1C(=O)CNC(=O)[C@@H]1CCCN1C(=O)[C@H](CC(=O)O)NC(=O)[C@H](CCC(=O)O)NC(=O)[C@@H](NC(=O)[C@H](Cc1ccccc1)NC(=O)[C@H](Cc1c[nH]c2ccccc12)NC(=O)[C@H](CCC(N)=O)NC(=O)[C@@H](N)CCC(=O)O)[C@@H](C)O)C(=O)N1CCC[C@H]1C(=O)N[C@@H](CCCNC(=N)N)C(=O)O` ; IC50 observed: > 10 µM

Sample `CC(C)C[C@H](NC(=O)[C@H](CCCCN)NC(=O)[C@H](Cc1c[nH]c2ccccc12)NC(=O)[C@@H](N)CC(C)C)C(=O)N[C@@H](CC(C)C)C(=O)N1CCC[C@H]1C(=O)N[C@@H](CCC(=O)O)C(=O)N[C@@H](CC(N)=O)C(=O)N[C@@H](CC(N)=O)C(=O)N[C@H](C(=O)N[C@@H](CC(C)C)C(=O)N[C@@H](CO)C(=O)N1CCC[C@H]1C(=O)N[C@@H](CC(C)C)C(=O)N1CCC[C@H]1C(=O)O)C(C)C` ; IC50 observed: > 10 µM

Sample `CC[C@H](C)[C@H](NC(=O)[C@H](C)NC(=O)[C@@H](N)CCSC)C(=O)N[C@@H](Cc1ccc(O)cc1)C(=O)N[C@@H](CCCCN)C(=O)N[C@@H](CCC(N)=O)C(=O)N[C@@H](CO)C(=O)N[C@@H](CCC(N)=O)C(=O)N[C@@H](Cc1c[nH]cn1)C(=O)N[C@@H](CCSC)C(=O)N[C@H](C(=O)N[C@@H](CCC(=O)O)C(=O)N[C@H](C(=O)N[C@H](C(=O)N[C@@H](CCCNC(=N)N)C(=O)O)C(C)C)C(C)C)[C@@H](C)O` ; IC50 observed: > 10 µM

----------
# measurementTarget: DRB1*0301 (DR3) (Homo sapiens, UniProt P01903+P01911, A100K/A102G/A103R/A169T/F55Y/I96L/K41T/L162R/M171V/P40S/Q125H/Q178H/Q39Y/R42S/S66N/T106N/T262R/W38E/Y61H)
measuredAttribute: IC50

Sample `CC[C@H](C)[C@H](NC(=O)[C@H](CCC(N)=O)NC(=O)[C@H](CC(C)C)NC(=O)[C@@H](NC(=O)[C@H](Cc1ccccc1)NC(=O)[C@H](Cc1ccc(O)cc1)NC(=O)[C@H](CCC(=O)O)NC(=O)CN)[C@@H](C)O)C(=O)N[C@@H](CCCNC(=N)N)C(=O)NCC(=O)N[C@@H](CCCNC(=N)N)C(=O)N[C@@H](CCC(=O)O)C(=O)N[C@@H](CCCNC(=N)N)C(=O)N[C@@H](Cc1ccccc1)C(=O)N[C@@H](CCC(=O)O)C(=O)O` ; IC50 observed: > 10 µM

Sample `CC(C)C[C@H](NC(=O)[C@H](CCC(N)=O)NC(=O)[C@@H](NC(=O)[C@@H]1CCCN1)C(C)C)C(=O)N[C@@H](Cc1c[nH]c2ccccc12)C(=O)N[C@H](C(=O)N[C@@H](CC(=O)O)C(=O)N[C@@H](CO)C(=O)N[C@H](C(=O)N1CCC[C@H]1C(=O)N1CCC[C@H]1C(=O)N1CCC[C@H]1C(=O)NCC(=O)N[C@H](C(=O)N[C@@H](CCCNC(=N)N)C(=O)O)[C@@H](C)O)[C@@H](C)O)C(C)C` ; IC50 observed: > 10 µM
